B1: Caulobacter ParB omega fusion; a variant is named by its letters at X, in order, B8GW30 (parent)
chain: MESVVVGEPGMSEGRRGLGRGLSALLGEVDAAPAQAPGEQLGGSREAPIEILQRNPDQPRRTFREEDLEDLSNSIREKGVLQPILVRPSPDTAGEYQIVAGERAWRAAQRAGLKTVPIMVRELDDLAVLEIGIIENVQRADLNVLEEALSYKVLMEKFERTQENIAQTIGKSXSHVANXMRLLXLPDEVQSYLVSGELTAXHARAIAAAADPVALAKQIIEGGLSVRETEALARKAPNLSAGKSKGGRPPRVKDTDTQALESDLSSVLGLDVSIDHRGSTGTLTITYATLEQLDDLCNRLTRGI

# Variants of: B1
# experiment-description: one-hybrid fitness for binding NBS DNA (the Noc-binding site; scaled: cognate 1, non-cognate 0); higher = stronger binding
# setup-conditions: with NBS DNA site
The full ranking holds about 81,000 sequences; the median of “one-hybrid fitness for binding NBS DNA” is about -0.1, and the highest 2% start at about 0.36. For the sample, the highest values were picked, then their nearest neighbours and some sequences at random.
measurement-label: one-hybrid fitness for binding NBS DNA
Answer field: number only, no words.

{"columns": ["mutation-notation", "measurement-label", "numeric-readout"],
 "data": [
  ["RCGA", "one-hybrid fitness for binding NBS DNA", 0.259],
  ["RLHT", "one-hybrid fitness for binding NBS DNA", 0.437],
  ["QAYA", "one-hybrid fitness for binding NBS DNA", 0.249]
]}

Please report one-hybrid fitness for binding NBS DNA for the following variant: `RRMR`
0.723

Item `QHRA` : provide one-hybrid fitness for binding NBS DNA
0.533

Specify reported one-hybrid fitness for binding NBS DNA for the variant shown: `QMRK`
0.387

Input `RIRT` , output reported one-hybrid fitness for binding NBS DNA.
0.615
